Below is a list of entries, each paired with its recorded pKi value.
# Measurement target: Adenosine receptor A1 (Bos taurus, UniProt P28190)
# Sequence (P28190 whole entry): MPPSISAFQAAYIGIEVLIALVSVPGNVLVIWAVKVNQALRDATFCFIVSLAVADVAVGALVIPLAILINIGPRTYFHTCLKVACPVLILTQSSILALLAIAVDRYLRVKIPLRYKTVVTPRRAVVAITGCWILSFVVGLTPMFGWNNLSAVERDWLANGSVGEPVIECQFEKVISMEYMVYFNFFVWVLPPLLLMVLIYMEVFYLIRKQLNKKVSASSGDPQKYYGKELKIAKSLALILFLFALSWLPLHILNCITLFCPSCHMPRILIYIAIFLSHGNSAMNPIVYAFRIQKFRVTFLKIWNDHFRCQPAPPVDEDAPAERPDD
pKi: −log10 of the molar value.
Endpoint name: pKi

* CCCCNc1nc(-c2ccccc2)nc2c1nnn2Cc1ccccc1C(F)(F)F | 8.19
* OCCCNc1nc(-c2ccccc2)nc2c1nnn2Cc1ccccc1 | 7.67
* Clc1ccccc1Cn1nnc2c(NC3CC3)nc(-c3ccccc3)nc21 | 7.96
* CCCCCCNc1nc(-c2ccccc2)nc2c1nnn2Cc1ccccc1 | 7.88
* CNc1nc(-c2ccccc2)nc2c1nnn2Cc1ccccc1Cl | 6.72
* CCCCCCNc1nc(-c2ccccc2)nc2c1nnn2Cc1ccccc1Cl | 7.51
* FC(F)(F)c1ccccc1Cn1nnc2c(NC3CCCCC3)nc(-c3ccccc3)nc21 | 8.17
* CCCCCCNc1nc(-c2ccccc2)nc2c1nnn2Cc1ccccc1F | 7.60
* OCCNc1nc(-c2ccccc2)nc2c1nnn2Cc1ccccc1F | 7.27
* FC(F)(F)c1ccccc1Cn1nnc2c(NC3CC3)nc(-c3ccccc3)nc21 | 8.11
* FC(F)(F)c1ccccc1Cn1nnc2c(NC3CCCC3)nc(-c3ccccc3)nc21 | 9.22
* OCCCNc1nc(-c2ccccc2)nc2c1nnn2Cc1ccccc1F | 8.43
* Clc1ccccc1Cn1nnc2c(NC3CCC3)nc(-c3ccccc3)nc21 | 7.62
* CCCCNc1nc(-c2ccccc2)nc2c1nnn2Cc1ccccc1Cl | 7.10
* CCNc1nc(-c2ccccc2)nc2c1nnn2Cc1ccccc1Cl | 6.33
* CC(O)CNc1nc(-c2ccccc2)nc2c1nnn2Cc1ccccc1Cl (stereo not drawn) | 7.49
* CCCNc1nc(-c2ccccc2)nc2c1nnn2Cc1ccccc1F | 8.49
* OCCNc1nc(-c2ccccc2)nc2c1nnn2Cc1ccccc1 | 7.42
* c1ccc(Cn2nnc3c(NC4CCC4)nc(-c4ccccc4)nc32)cc1 | 8.30
* OCCCNc1nc(-c2ccccc2)nc2c1nnn2Cc1ccccc1C(F)(F)F | 6.83
* Fc1ccccc1Cn1nnc2c(NC3CCCCC3)nc(-c3ccccc3)nc21 | 8.94
* Clc1ccccc1Cn1nnc2c(NC3CCCCC3)nc(-c3ccccc3)nc21 | 7.47
* Clc1ccccc1Cn1nnc2c(NC3CCCC3)nc(-c3ccccc3)nc21 | 8.05
